targetOrTestSystem: RPS6KA3 KD1 (human)
experiment: KINOMEscan competition binding
particulars: compound 10.0 µM
Hi! Just check whether kinase still bound, per cent of control is below 80%. Below gives Fulfilled, equal or above gives Not fulfilled.

Worked set:
recordSmiles: CCC(=O)N1CCN(c2ccc(-n3c(=O)ccc4cnc5ccc(-c6cnc7ccccc7c6)cc5c43)cc2C(F)(F)F)CC1
targetOrTestSystem: RPS6KA3 KD1 (human)
group: Fulfilled

recordSmiles: Cc1ccc2nc(NCCN)c3ncc(C)n3c2c1
targetOrTestSystem: RPS6KA3 KD1 (human)
group: Not fulfilled

recordSmiles: C=CC(=O)Nc1cccc(Nc2nc(N[C@H]3CC[C@H](N(C)C)CC3)nc3c2ncn3C(C)C)c1
targetOrTestSystem: RPS6KA3 KD1 (human)
group: Fulfilled

recordSmiles: COc1cc(C(=O)NC2CCN(C)CC2)ccc1Nc1ncc2c(n1)N(C1CCCC1)CCC(=O)N2C(C)C
targetOrTestSystem: RPS6KA3 KD1 (human)
group: Not fulfilled

Decide: kinase still bound, per cent of control of O=C(NOC[C@H](O)CO)c1ccc(F)c(F)c1Nc1ccc(I)cc1F strictly below 80%? Not fulfilled

# TODO verify kinase still bound, per cent of control < 80% strictly for this compound: C=CC(=O)Nc1cc(NC(=O)c2ccc(C)c(NC(=O)c3ccno3)c2)cc(C(F)(F)F)c1 Not fulfilled

Lab note: kinase still bound, per cent of control threshold 80%. Does this compound come in strictly under it? Cc1ccc(NC(=O)c2cccc(C(C)(C)C#N)c2)cc1Nc1ccc2ncn(C)c(=O)c2c1 Not fulfilled

Determine whether this compound shows kinase still bound, per cent of control lower than 80% (ties excluded): O=C(O)c1ccc(Nc2ncc3c(n2)-c2ccc(Cl)cc2C(c2c(F)cccc2F)=NC3)cc1 Fulfilled

* * *

targetOrTestSystem: RPS6KA5 KD1 (human) (UniProt O75582)
experiment: KINOMEscan competition binding
particulars: compound 10.0 µM
Readings of kinase still bound, per cent of control for the listed molecules
Use % as the unit, but write only the number.

molecule: COc1cc(C(=O)NC2CCN(C)CC2)ccc1Nc1ncc2c(n1)N(C1CCCC1)CCC(=O)N2C(C)C
kinase still bound, per cent of control [%]: 100
//
molecule: O=C(O)c1ccc(Nc2ncc3c(n2)-c2ccc(Cl)cc2C(c2c(F)cccc2F)=NC3)cc1
kinase still bound, per cent of control [%]: 99
//
molecule: COc1cc(C(=O)NC2CCN(C)CC2)ccc1Nc1ncc2c(n1)N(C1CCCC1)C(C)CC(=O)N2C (centres undefined)
kinase still bound, per cent of control [%]: 100
//
molecule: Nc1ccc(-c2ccc3ncc4ccc(=O)n(-c5cccc(C(F)(F)F)c5)c4c3c2)cn1
kinase still bound, per cent of control [%]: 100
//
molecule: CN(C)C/C=C/C(=O)Nc1cccc(Nc2ncc3c(n2)N(C)c2ccccc2C(=O)N3C)c1
kinase still bound, per cent of control [%]: 100

For the molecule Cc1ccc(C(=O)Nc2cccc(C(F)(F)F)c2)cc1Nc1cncc(C(N)=O)c1 , give its reported kinase still bound, per cent of control. 100

In one line, give reported kinase still bound, per cent of control of the entry Cc1cc([C@@H](C)Nc2ccccc2C(=O)O)c2nc(N3CCOCC3)cc(=O)n2c1 . 81

Tell us which kinase still bound, per cent of control value is on record for CCN1CCN(Cc2ccc(Nc3ncc4c(n3)N(C)c3ccccc3C(=O)N4C)cc2C(F)(F)F)CC1 100

Supply reported kinase still bound, per cent of control belonging to this molecule: OCCCNc1cc(-c2ccnc(Nc3cccc(Cl)c3)n2)ccn1 100

* * *

targetOrTestSystem: UniProtKB P51617
Sequence (P51617 whole entry, looked up): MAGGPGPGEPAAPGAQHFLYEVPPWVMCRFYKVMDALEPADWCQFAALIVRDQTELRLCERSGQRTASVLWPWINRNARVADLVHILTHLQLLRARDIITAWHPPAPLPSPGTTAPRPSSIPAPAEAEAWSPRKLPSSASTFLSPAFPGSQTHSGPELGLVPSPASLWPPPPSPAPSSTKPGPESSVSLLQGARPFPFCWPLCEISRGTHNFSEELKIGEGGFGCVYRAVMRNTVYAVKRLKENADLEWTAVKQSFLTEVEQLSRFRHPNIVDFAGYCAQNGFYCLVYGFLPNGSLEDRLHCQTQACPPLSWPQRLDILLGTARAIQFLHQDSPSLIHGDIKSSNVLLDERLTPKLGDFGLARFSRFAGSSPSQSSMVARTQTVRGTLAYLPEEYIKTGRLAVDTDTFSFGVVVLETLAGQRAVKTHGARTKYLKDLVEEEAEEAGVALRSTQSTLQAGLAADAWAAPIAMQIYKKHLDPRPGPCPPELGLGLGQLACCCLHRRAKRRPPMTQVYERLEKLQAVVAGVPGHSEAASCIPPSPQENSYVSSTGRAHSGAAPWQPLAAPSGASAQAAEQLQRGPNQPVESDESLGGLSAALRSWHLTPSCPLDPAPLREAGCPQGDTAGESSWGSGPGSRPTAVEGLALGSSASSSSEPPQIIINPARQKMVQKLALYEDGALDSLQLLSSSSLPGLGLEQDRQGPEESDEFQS
experiment: KINOMEscan competition binding
particulars: compound 10.0 µM
recordedEndpoint: kinase still bound, per cent of control
Respond with the figure and its unit, in that order.

recordSmiles: N#Cc1c(NC(=O)c2cccc3ccccc23)sc2c1CCCC2
measured: 100%

Please tell me the measured kinase still bound, per cent of control for C[C@@H](Oc1cc(-n2cnc3ccc(CN4CCN(C)CC4)cc32)sc1C(N)=O)c1ccccc1C(F)(F)F ; system: UniProtKB P51617. 23%

Give reported kinase still bound, per cent of control for O=C(NOC[C@H](O)CO)c1ccc(F)c(F)c1Nc1ccc(I)cc1F (UniProtKB P51617) 100%

Name the value of kinase still bound, per cent of control reported for O=C1Nc2ccc(I)cc2/C1=C/c1cc(Br)c(O)c(Br)c1 when tested on UniProtKB P51617. 100%

* * *

targetOrTestSystem: EPHA2 (human) (UniProt P29317)
Sequence (P29317 whole entry, looked up): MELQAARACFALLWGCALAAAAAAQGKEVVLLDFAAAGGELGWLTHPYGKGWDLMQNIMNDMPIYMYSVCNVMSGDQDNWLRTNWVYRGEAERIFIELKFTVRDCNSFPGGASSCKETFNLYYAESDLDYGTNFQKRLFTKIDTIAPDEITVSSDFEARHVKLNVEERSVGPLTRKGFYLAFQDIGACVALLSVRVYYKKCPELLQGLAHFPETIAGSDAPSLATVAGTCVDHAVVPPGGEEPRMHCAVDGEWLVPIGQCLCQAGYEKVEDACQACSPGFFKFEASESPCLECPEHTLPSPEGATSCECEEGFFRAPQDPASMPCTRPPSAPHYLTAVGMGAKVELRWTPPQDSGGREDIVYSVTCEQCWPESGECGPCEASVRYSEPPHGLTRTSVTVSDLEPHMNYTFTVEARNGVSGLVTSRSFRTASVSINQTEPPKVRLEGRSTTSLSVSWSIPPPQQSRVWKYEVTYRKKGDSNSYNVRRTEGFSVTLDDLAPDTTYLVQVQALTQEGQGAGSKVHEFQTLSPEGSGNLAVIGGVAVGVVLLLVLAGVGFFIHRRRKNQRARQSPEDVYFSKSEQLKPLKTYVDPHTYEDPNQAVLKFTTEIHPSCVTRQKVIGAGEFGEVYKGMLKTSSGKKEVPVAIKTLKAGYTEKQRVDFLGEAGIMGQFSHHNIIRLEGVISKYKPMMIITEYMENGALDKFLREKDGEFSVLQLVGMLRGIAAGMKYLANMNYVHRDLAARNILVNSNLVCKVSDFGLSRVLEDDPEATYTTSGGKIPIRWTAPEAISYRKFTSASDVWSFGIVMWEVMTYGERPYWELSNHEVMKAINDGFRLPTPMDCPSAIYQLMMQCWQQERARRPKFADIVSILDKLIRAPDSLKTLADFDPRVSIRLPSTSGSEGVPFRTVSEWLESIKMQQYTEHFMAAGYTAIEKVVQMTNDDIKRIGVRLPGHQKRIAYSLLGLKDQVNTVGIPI
experiment: KINOMEscan competition binding
particulars: compound 10.0 µM
Measured kinase still bound, per cent of control, listed per entry.
Note: unit % is implicit; provide only the numeric part.

Return reported kinase still bound, per cent of control. Input molecule: Cc1ccc(NC(=O)c2cccc(C(C)(C)C#N)c2)cc1Nc1ccc2ncn(C)c(=O)c2c1 3.2

* * *

targetOrTestSystem: CIT (human) (UniProt O14578)
Sequence (O14578 whole entry, looked up): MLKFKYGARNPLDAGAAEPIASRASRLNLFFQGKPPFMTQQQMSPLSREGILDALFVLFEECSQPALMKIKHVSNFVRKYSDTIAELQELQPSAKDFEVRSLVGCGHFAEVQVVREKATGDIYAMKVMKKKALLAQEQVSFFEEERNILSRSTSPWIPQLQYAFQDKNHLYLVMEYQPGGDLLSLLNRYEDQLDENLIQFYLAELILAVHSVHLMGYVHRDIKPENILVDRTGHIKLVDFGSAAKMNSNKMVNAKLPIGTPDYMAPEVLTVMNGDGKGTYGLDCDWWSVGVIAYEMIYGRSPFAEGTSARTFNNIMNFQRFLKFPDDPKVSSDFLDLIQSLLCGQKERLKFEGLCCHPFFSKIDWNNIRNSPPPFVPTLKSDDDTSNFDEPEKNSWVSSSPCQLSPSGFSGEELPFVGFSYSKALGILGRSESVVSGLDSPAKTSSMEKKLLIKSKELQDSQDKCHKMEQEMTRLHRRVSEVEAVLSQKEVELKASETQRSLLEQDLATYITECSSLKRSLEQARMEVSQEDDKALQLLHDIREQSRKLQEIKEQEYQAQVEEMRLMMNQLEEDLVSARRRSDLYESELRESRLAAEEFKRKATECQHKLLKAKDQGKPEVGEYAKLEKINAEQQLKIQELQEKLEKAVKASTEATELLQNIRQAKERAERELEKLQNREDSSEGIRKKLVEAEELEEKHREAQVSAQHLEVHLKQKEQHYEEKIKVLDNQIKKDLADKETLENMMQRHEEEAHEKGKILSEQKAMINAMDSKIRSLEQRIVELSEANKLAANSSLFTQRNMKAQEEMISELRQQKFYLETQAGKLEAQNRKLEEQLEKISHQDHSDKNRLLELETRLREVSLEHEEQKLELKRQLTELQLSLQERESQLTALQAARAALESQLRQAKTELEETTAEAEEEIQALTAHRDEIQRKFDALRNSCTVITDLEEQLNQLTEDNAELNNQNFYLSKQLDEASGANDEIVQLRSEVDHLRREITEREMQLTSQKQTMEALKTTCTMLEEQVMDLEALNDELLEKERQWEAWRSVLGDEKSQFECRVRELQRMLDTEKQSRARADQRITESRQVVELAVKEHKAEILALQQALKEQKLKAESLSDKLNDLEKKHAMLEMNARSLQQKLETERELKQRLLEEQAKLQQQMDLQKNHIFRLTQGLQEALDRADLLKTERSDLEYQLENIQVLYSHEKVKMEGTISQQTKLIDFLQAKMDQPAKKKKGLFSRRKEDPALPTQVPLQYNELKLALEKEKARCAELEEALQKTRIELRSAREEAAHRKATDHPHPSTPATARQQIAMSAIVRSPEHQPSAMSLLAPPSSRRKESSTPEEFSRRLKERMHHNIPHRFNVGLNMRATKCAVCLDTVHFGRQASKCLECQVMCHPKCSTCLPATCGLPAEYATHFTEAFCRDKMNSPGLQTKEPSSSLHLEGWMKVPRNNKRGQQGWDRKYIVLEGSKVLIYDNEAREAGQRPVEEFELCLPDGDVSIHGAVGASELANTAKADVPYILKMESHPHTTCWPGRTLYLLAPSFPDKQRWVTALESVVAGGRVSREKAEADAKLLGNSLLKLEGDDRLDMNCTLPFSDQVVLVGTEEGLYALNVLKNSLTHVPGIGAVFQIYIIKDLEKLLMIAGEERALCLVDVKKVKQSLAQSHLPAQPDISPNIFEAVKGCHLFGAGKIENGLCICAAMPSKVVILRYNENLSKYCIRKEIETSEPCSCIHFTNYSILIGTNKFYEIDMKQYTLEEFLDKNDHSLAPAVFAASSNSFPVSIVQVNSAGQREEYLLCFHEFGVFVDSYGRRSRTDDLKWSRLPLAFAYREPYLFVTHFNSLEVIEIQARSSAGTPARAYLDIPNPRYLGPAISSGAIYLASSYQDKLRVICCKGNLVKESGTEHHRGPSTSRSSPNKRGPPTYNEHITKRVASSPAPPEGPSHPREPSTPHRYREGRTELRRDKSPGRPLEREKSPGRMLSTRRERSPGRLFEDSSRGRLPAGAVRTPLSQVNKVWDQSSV
experiment: KINOMEscan competition binding
particulars: compound 10.0 µM
1 if kinase still bound, per cent of control is below 90%. -1 if not; exact matches included in -1.

compound: OCCCNc1cc(-c2ccnc(Nc3cccc(Cl)c3)n2)ccn1
group: -1
//
compound: O=C(NOC[C@H](O)CO)c1ccc(F)c(F)c1Nc1ccc(I)cc1F
group: -1
//
compound: CCC(=O)N1CCN(c2ccc(-n3c(=O)ccc4cnc5ccc(-c6cnc7ccccc7c6)cc5c43)cc2C(F)(F)F)CC1
group: 1
//
compound: C=CC(=O)Nc1cccc(Oc2nc(Nc3ccc(N4CCN(C)CC4)cc3OC)ncc2Cl)c1
group: -1

In the record for COc1cc(N2CCN(C)CC2)ccc1Nc1nc(N)c(C(=O)c2c(Cl)cccc2Cl)s1 , is kinase still bound, per cent of control less than 90%? -1

Problem: For the compound COc1cc(C(=O)NC2CCN(C)CC2)ccc1Nc1ncc2c(n1)N(C1CCCC1)CCC(=O)N2C(C)C , is kinase still bound, per cent of control under 90%? -1

I wonder whether COc1cc(C(=O)NC2CCN(C)CC2)ccc1Nc1ncc2c(n1)N(C1CCCC1)C(C)CC(=O)N2C (centres undefined) has kinase still bound, per cent of control below 90%. Can you tell? -1

Is 90% strictly greater than the compound's reported kinase still bound, per cent of control? compound: Nc1ccc(-c2ccc3ncc4ccc(=O)n(-c5cccc(C(F)(F)F)c5)c4c3c2)cn1 -1

Does Cc1ccc(NC(=O)c2cccc(C(C)(C)C#N)c2)cc1Nc1ccc2ncn(C)c(=O)c2c1 have kinase still bound, per cent of control strictly under 90%? 1

Could you please tell me whether kinase still bound, per cent of control recorded for CC[C@@H]1C(=O)N(C)c2cnc(Nc3ccc(C(=O)NC4CCN(C)CC4)cc3OC)nc2N1C1CCCC1 is less than 90%? -1

Is kinase still bound, per cent of control of CCN1CCN(Cc2ccc(Nc3ncc4c(n3)N(C)c3ccccc3C(=O)N4C)cc2C(F)(F)F)CC1 strictly below 90%? -1

Consider the compound O=C1Nc2ccc(I)cc2/C1=C/c1cc(Br)c(O)c(Br)c1 . Is its kinase still bound, per cent of control strictly less than 90%? 1

Decide: kinase still bound, per cent of control of CN(C)C/C=C/C(=O)Nc1cccc(Nc2ncc3c(n2)N(C)c2ccccc2C(=O)N3C)c1 strictly below 90%? 1

* * *

Item-by-item account of kinase still bound, per cent of control
targetOrTestSystem: TIE1 (human) (UniProt P35590)
Sequence (P35590 whole entry, looked up): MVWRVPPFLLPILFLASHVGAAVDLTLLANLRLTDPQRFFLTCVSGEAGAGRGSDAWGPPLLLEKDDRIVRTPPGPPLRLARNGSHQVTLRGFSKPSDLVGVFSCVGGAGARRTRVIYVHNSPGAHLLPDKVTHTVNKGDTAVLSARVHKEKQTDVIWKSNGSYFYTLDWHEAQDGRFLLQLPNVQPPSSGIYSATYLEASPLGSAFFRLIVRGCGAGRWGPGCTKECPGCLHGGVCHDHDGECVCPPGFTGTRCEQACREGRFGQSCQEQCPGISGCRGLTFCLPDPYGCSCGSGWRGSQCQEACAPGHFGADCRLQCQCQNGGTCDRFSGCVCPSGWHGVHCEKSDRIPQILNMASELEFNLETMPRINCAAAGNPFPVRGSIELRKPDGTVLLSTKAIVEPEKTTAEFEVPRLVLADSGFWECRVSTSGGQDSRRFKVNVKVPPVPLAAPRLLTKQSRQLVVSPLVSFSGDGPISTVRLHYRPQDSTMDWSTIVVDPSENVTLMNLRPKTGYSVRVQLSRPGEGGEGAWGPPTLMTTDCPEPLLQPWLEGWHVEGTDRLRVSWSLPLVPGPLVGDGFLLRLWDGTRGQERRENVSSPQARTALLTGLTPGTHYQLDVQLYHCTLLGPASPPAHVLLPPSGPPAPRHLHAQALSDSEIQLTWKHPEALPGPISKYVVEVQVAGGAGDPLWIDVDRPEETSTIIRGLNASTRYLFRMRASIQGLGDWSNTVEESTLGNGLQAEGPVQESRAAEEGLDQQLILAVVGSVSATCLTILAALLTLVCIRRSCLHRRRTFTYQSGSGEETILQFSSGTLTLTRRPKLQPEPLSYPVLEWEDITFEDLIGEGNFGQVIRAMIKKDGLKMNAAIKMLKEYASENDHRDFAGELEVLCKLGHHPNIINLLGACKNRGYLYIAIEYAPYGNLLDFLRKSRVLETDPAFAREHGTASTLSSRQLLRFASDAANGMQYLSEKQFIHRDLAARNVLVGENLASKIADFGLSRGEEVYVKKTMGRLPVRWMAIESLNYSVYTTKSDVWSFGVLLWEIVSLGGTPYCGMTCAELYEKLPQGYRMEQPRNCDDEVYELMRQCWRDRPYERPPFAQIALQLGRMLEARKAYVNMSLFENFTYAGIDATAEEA
experiment: KINOMEscan competition binding
particulars: compound 10.0 µM
Respond numerically; units are % and should not be typed.

The following compounds have reported results that may help.
recordSmiles: C=CC(=O)Nc1cccc(Oc2nc(Nc3ccc(N4CCN(C)CC4)cc3OC)ncc2Cl)c1
kinase still bound, per cent of control, %: 100
//
recordSmiles: CCCS(=O)(=O)Nc1ccc(F)c(C(=O)c2c[nH]c3ncc(-c4ccc(Cl)cc4)cc23)c1F
kinase still bound, per cent of control, %: 38
//
recordSmiles: N#Cc1c(NC(=O)c2cccc3ccccc23)sc2c1CCCC2
kinase still bound, per cent of control, %: 95

Answer with the recorded kinase still bound, per cent of control of O=C(NC1CC1)c1cccc(-c2ccc3c(NC(=O)C4CC4)n[nH]c3c2)c1 only. 31

Given C=CC(=O)Nc1cc(NC(=O)c2ccc(C)c(NC(=O)c3ccno3)c2)cc(C(F)(F)F)c1 , respond with its kinase still bound, per cent of control. 100

Check the records and state kinase still bound, per cent of control for Cc1ccc(NC(=O)c2cccc(C(C)(C)C#N)c2)cc1Nc1ccc2ncn(C)c(=O)c2c1 11

Tell us which kinase still bound, per cent of control value is on record for C=CC(=O)Nc1cccc(Nc2nc(N[C@H]3CC[C@H](N(C)C)CC3)nc3c2ncn3C(C)C)c1 86

Recall and state the measured kinase still bound, per cent of control for COc1cc(C(=O)NC2CCN(C)CC2)ccc1Nc1ncc2c(n1)N(C1CCCC1)CCC(=O)N2C(C)C . 100

Identify the reported kinase still bound, per cent of control for the following entry. Cc1cc([C@@H](C)Nc2ccccc2C(=O)O)c2nc(N3CCOCC3)cc(=O)n2c1 100

Give kinase still bound, per cent of control for the following compound: COc1cc(N2CCN(C)CC2)ccc1Nc1nc(N)c(C(=O)c2c(Cl)cccc2Cl)s1 100

Consider the compound O=C1Nc2ccc(I)cc2/C1=C/c1cc(Br)c(O)c(Br)c1 and give its recorded kinase still bound, per cent of control. 86

// fetch kinase still bound, per cent of control given entry CC[C@@H]1C(=O)N(C)c2cnc(Nc3ccc(C(=O)NC4CCN(C)CC4)cc3OC)nc2N1C1CCCC1 100

Given O=C(NOC[C@H](O)CO)c1ccc(F)c(F)c1Nc1ccc(I)cc1F , respond with its kinase still bound, per cent of control. 54
